# Test system: E57 (patient-derived glioblastoma stem cells of mesenchymal subtype);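 further: nuclei counted by high-content imaging of Hoechst-stained cells in laminin-coated 384-well plates, relative to 0.1% DMSO vehicle wells, with staurosporine as cell-death control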
# EXPERIMENTAL PROTOCOL: surviving fraction (nuclei count normalised to DMSO); higher = more cells surviving (less toxic)
# EXPERIMENTAL CONDITIONS: 1000 nM; exposure time: 72 h
Structures can show the parent of a compound that is named as a salt.
Threshold check on surviving fraction: at or above 0.7 gives Fulfilled, strictly below gives Not fulfilled.

Prompt: hey, is surviving fraction for this one >= 0.7? "COc1ccc2c(c1)CC[C@@H]1[C@@H]2CC[C@]2(C)[C@@H](NCCCCCCN3C(=O)CCC3=O)CC[C@@H]12"
Response: Fulfilled

Prompt: hey, is surviving fraction for this one >= 0.7? O=c1[nH]c(=O)n([C@H]2C[C@H](O)[C@@H](CO)O2)cc1I [Idoxuridine]
Response: Fulfilled

Prompt: hey, is surviving fraction for this one >= 0.7? CO[C@H]1C(=O)[C@]2(C)[C@@H](OC)C[C@H]3OC[C@@]3(OC(C)=O)[C@H]2[C@H](OC(=O)c2ccccc2)[C@]2(O)C[C@H](OC(=O)[C@H](O)[C@@H](NC(=O)OC(C)(C)C)c3ccccc3)C(C)=C1C2(C)C [Cabazitaxel]
Response: Not fulfilled

Prompt: hey, is surviving fraction for this one >= 0.7? CCC[C@@H]1C[C@@H](C(=O)N[C@@H]([C@H]2O[C@H](SC)[C@H](O)[C@@H](O)[C@H]2O)[C@@H](C)O)N(C)C1 [Lincomycin hydrochloride]
Response: Fulfilled

Prompt: hey, is surviving fraction for this one >= 0.7? Cc1cc(Nc2cc(N3CCN(C)CC3)nc(Sc3ccc(NC(=O)C4CC4)cc3)n2)n[nH]1 [Tozasertib]
Response: Not fulfilled

Prompt: hey, is surviving fraction for this one >= 0.7? COC(=O)C1=C(C)NC(C)=C(C(=O)OCC(C)C)C1c1ccccc1[N+](=O)[O-] (stereo unspecified) [Nisoldipine]
Response: Fulfilled

Prompt: hey, is surviving fraction for this one >= 0.7? COC(=O)Nc1nc2cc(C(=O)c3ccc(F)cc3)ccc2[nH]1 [Flubendazol]
Response: Not fulfilled

Prompt: hey, is surviving fraction for this one >= 0.7? "CC[n+]1c(/C=C/C=C2/N(C)c3ccccc3C2(C)C)sc2ccccc21"
Response: Not fulfilled

Prompt: hey, is surviving fraction for this one >= 0.7? C=C(C)[C@H]1Cc2c(ccc3c2O[C@@H]2COc4cc(OC)c(OC)cc4[C@@H]2C3=O)O1 [Rotenone]
Response: Fulfilled

Prompt: hey, is surviving fraction for this one >= 0.7? COc1cccc2c1C(=O)c1c(O)c3c(c(O)c1C2=O)C[C@@](O)(C(=O)CO)C[C@@H]3O[C@H]1C[C@H](N)[C@H](O)[C@H](C)O1 [Doxorubicin hydrochloride]
Response: Not fulfilled

Prompt: hey, is surviving fraction for this one >= 0.7? CCCCC1C(=O)N(c2ccccc2)N(c2ccc(O)cc2)C1=O (stereo unspecified) [Oxyphenbutazone]
Response: Fulfilled

Prompt: hey, is surviving fraction for this one >= 0.7? CN1C(=O)CC(c2ccccc2)C1=O (stereo unspecified) [Phensuximide]
Response: Fulfilled

Prompt: hey, is surviving fraction for this one >= 0.7? O=C1CC[C@@H](C(=O)N2CSC[C@H]2C(=O)O)N1 [Pidotimod]
Response: Fulfilled

Prompt: hey, is surviving fraction for this one >= 0.7? CC[C@H]1CN2CCc3cc(OC)c(OC)cc3[C@@H]2C[C@@H]1C[C@H]1NCCc2cc(OC)c(OC)cc21 [Emetine dihydrochloride hydrate]
Response: Not fulfilled

Prompt: hey, is surviving fraction for this one >= 0.7? O=C(/C=C/c1cccnc1)NCCCCC1CCN(C(=O)c2ccccc2)CC1 [Daporinad]
Response: Not fulfilled

Prompt: hey, is surviving fraction for this one >= 0.7? COc1cc([C@@H]2c3cc4c(cc3[C@@H](O[C@@H]3O[C@@H]5CO[C@@H](c6cccs6)O[C@H]5[C@H](O)[C@H]3O)[C@H]3COC(=O)[C@H]23)OCO4)cc(OC)c1O [Teniposide]
Response: Not fulfilled

Prompt: hey, is surviving fraction for this one >= 0.7? Oc1ccc(OCc2ccccc2)cc1 [Monobenzone]
Response: Fulfilled

Prompt: hey, is surviving fraction for this one >= 0.7? O=C1c2c(O)ccc(O)c2C(=O)c2c(NCCNCCO)ccc(NCCNCCO)c21 [Mitoxantrone]
Response: Not fulfilled

Prompt: hey, is surviving fraction for this one >= 0.7? CC[C@@H]1C(=O)N(C)c2cnc(Nc3ccc(C(=O)N[C@H]4CC[C@H](N5CCN(CC6CC6)CC5)CC4)cc3OC)nc2N1C(C)C [Volasertib]
Response: Not fulfilled

Prompt: hey, is surviving fraction for this one >= 0.7? Cn1ncnc1[C@H]1c2n[nH]c(=O)c3cc(F)cc(c23)N[C@@H]1c1ccc(F)cc1 [Talazoparib]
Response: Not fulfilled

Prompt: hey, is surviving fraction for this one >= 0.7? "CCn1c(-c2nonc2N)nc2cnc(Oc3cccc(NC(=O)c4ccc(OCCN5CCOCC5)cc4)c3)cc21"
Response: Not fulfilled

Prompt: hey, is surviving fraction for this one >= 0.7? CCn1cc(C(=O)O)c(=O)c2cc(F)c(N3CCNCC3)nc21 [Enoxacin]
Response: Fulfilled

Prompt: hey, is surviving fraction for this one >= 0.7? NCCNc1ccc(NCCN)c2c1C(=O)c1ccncc1C2=O [Pixantrone dimaleate]
Response: Not fulfilled

Prompt: hey, is surviving fraction for this one >= 0.7? CC(C)C[C@H](NC(=O)[C@H](CCc1ccccc1)NC(=O)CN1CCOCC1)C(=O)N[C@@H](Cc1ccccc1)C(=O)N[C@@H](CC(C)C)C(=O)[C@@]1(C)CO1 [Carfilzomib]
Response: Not fulfilled

Prompt: hey, is surviving fraction for this one >= 0.7? CC1(C(=O)O)C2CCC(O2)C1(C)C(=O)O (stereo unspecified) [Cantharidic Acid]
Response: Fulfilled

Prompt: hey, is surviving fraction for this one >= 0.7? COC(=O)Nc1nc2cc(C(=O)c3cccs3)ccc2[nH]1 [Nocodazole]
Response: Not fulfilled

Prompt: hey, is surviving fraction for this one >= 0.7? CCOC(=O)C1=C(C)NC(C)=C(C(=O)OCC)C1c1c(F)c(F)c(F)c(F)c1F [Nemadipine-A]
Response: Fulfilled

Prompt: hey, is surviving fraction for this one >= 0.7? O=[N+]([O-])c1ccc2c(c1)S(=O)(=O)C=C2 [Stattic]
Response: Not fulfilled

Prompt: hey, is surviving fraction for this one >= 0.7? CNCCc1ccccn1 [Betahistine mesylate]
Response: Fulfilled

Prompt: hey, is surviving fraction for this one >= 0.7? CN(C)C(=O)Oc1ccc[n+](C)c1 [Pyridostigmine iodide]
Response: Fulfilled
